Source of measurements: the supplement of paper PMC3545927

measuredTarget: furin, P09958;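 note: purified furin at 1:10 enzyme:substrate in 50 mM HEPES pH 7.5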
Sequence (P09958 whole entry): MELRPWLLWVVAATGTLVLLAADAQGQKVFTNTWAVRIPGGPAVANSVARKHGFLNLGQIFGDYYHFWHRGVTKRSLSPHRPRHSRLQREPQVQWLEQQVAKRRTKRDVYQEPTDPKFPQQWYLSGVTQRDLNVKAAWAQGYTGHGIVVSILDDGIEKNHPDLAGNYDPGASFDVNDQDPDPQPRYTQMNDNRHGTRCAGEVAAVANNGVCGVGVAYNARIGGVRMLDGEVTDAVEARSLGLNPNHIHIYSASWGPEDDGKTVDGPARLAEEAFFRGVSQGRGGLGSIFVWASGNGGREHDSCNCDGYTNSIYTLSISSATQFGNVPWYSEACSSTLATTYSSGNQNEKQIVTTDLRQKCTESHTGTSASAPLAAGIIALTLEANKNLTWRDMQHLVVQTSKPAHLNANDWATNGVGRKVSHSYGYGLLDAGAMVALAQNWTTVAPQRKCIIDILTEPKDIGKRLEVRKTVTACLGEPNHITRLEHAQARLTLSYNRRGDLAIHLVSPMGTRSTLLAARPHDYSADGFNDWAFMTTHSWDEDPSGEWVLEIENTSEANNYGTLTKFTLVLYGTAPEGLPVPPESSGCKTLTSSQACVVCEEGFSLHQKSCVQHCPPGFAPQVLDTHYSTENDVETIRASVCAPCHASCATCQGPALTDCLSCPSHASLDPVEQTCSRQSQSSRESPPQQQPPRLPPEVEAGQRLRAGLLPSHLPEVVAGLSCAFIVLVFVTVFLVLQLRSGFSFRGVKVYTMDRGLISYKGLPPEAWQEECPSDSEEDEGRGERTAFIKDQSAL
testDetails: furin cleavage Z-score vs untreated control; higher = more cleavage, active = 3.5 or more, inactive = 1 or less, 8 variable residues between constant flanks
conditionContext: 30 min
Some of the results follow. No count for the full screen is at hand.
measure: furin cleavage Z-score

| primarySequence | quantitativeResult |
| --- | --- |
| CAPTYSWGENAGNASASA [HC423] | 0.237 |
| CAPLARAAWEAGNASASA [HC1566] | 0.234 |
| CARRRRNVHDAGNASASA [FS-2375] | 4.66 |
| CARSPRPRGDAGNASASA [FS-3090] | 0.318 |
| CAPLARPRRDAGNASASA [FS-556] | 6.73 |
| CARRRREAPKAGNASASA [FS-2452] | 8.72 |
| CAREECSQHLAGNASASA [HC1673] | 0.967 |
| CAADGGCSGGAGNASASA [HC811] | -0.396 |
| CARKSRWAKLAGNASASA [FS-2982] | 3.23 |
| CARRRRLLQQAGNASASA [FS-3167] | -0.168 |
| CAVFTGLTHIAGNASASA [HC941] | -1.78 |
| CAQVCCSMSYAGNASASA [HC2002] | 0.558 |
| CATTPGSGSWAGNASASA [HC42] | -0.629 |
| CAMDECSQHLAGNASASA [HC1691] | -1.23 |
| CARRRREYWQAGNASASA [FS-2077] | 5.41 |
